target_desc: human ENPP2 (Homo sapiens (Human))
assay_explanation: Inhibitory activity on human ENPP2 (FS-3 assay)
Format: biochemical
condition_set: FS-3 assay, same process as Test example 1; read-out: Enzymatic assay (IC50) FS-3
measurement_type: pIC50
Answers are plain numbers, as −log10 of the molar value.

                                   compound                         target_desc  measurement_type  meas_value
0  O=C(Cc1cn(-c2ccc(Cl)cc2)c(-c2cnc(NC3Cc4ccccc4C3)nc2)n1)N1CCc2[nH]nnc2C1  human ENPP2 (Homo sapiens (Human))             pIC50        8.74
1  O=C(Cn1cc(-c2cnc(NC3Cc4ccccc4C3)nc2)c(NC2CCC2)n1)N1CCc2[nH]nnc2C1  human ENPP2 (Homo sapiens (Human))             pIC50        8.76
2  O=C(CO)N1CCN(C(=O)Cn2cc(-c3cnc(NC4Cc5ccccc5C4)nc3)c(-c3ccncc3)n2)CC1  human ENPP2 (Homo sapiens (Human))             pIC50        8.52
3  CCN(CC)c1nn(CC(=O)N2CCc3[nH]nnc3C2)cc1-c1cnc(NC2Cc3ccccc3C2)nc1  human ENPP2 (Homo sapiens (Human))             pIC50        8.59
4  O=C(Cn1cc(-c2cnc(NC3Cc4ccccc4C3)nc2)c(C2CCNCC2)n1)N1CCc2[nH]nnc2C1  human ENPP2 (Homo sapiens (Human))             pIC50        8.03
5  NC1CCC(c2nn(CC(=O)N3CCc4[nH]nnc4C3)cc2-c2cnc(NC3Cc4ccccc4C3)nc2)CC1 (centres unmarked)  human ENPP2 (Homo sapiens (Human))             pIC50        8.55
6  O=C(Cn1cc(-c2cnc(NC3Cc4ccccc4C3)nc2)c(-c2ccncc2)n1)N1CCc2[nH]nnc2C1  human ENPP2 (Homo sapiens (Human))             pIC50        8.69

Next compound, pIC50 to be filled in.
input: For the record Cc1nc(-c2cnc(NC3Cc4ccccc4C3)nc2)cn1CC(=O)N1CCc2[nH]nnc2C1 , what value of pIC50 is listed for human ENPP2 (Homo sapiens (Human))?
output: 8.81

---

System: LPA production in blood serum caused by autotoxin
assay_explanation: Inhibitory activity on LPA production in mouse blood serum
Type: biochemical
condition_set: mouse blood serum (m), 18:1 LPC, 3 hours at 37° C.
measurement_type: pIC50
One number for each entry, as −log10 of the molar value.

                                   compound  measurement_type  meas_value
0  O=C(NCCC(=O)N1CCc2[nH]nnc2C1)c1cnc(NCc2cccc(OC(F)(F)F)c2)nc1             pIC50        7.64

Go through the items and report each one's pIC50.
1. O=C(CN1CCC(c2cnc(NC3Cc4ccccc4C3)nc2)CC1)N1CCc2[nH]nnc2C1
2. O=C(Cc1nnc(-c2cnc(NC3CC=C(c4cccc(Cl)c4)CC3)nc2)o1)N1CCc2[nH]nnc2C1 (stereo not shown)
3. O=C(NC[C@H]1CN(c2ccc3[nH]c(=O)oc3c2)C(=O)O1)c1cnc(NCc2cccc(OC(F)(F)F)c2)nc1
4. O=C(CCN1CCc2[nH]nnc2C1)N1CCN(c2cnc(NCc3cccc(OC(F)(F)F)c3)nc2)CC1
5. O=C(CCN1CCc2[nH]nnc2C1)N1CCC(c2cnc(NC3Cc4ccccc4C3)nc2)CC1
6. O=C(CCN1CCc2[nH]nnc2C1)N1CCN(c2cnc(NC3Cc4ccccc4C3)nc2)CC1

output:
7.24
7.34
8.00
7.89
8.10
7.96

Just for reference, patent US10961242B2 is where these values come from.
